System: male rats
measurement description: Plasma metabolite profiling (GC-MS, LC-MS, SPE-LC-MS) in male rats dosed once daily over 28 days (OECD 407)
Format: in vivo, rat
run conditions: male rats, plasma, high dose, day 7
Assign Cholesterol, ratio versus control to each entry below.
One number for each entry.

{"columns": ["compound", "Cholesterol, ratio versus control"],
 "data": [
  ["O=P1(NCCCl)OCCCN1CCCl (stereo not shown) [Ifosfamide]", 1.12]
]}

Please indicate Cholesterol, ratio versus control recorded for CC(=O)O[C@]1(C(C)=O)CC[C@H]2[C@@H]3C[C@H](C)C4=CC(=O)CC[C@]4(C)[C@H]3CC[C@@]21C
0.9
